The measured values listed here are drawn from ChEMBL document CHEMBL1135409.

- Target Or Test System: Endothelin-1 receptor (Rattus norvegicus)
- Sequence (P26684 whole entry): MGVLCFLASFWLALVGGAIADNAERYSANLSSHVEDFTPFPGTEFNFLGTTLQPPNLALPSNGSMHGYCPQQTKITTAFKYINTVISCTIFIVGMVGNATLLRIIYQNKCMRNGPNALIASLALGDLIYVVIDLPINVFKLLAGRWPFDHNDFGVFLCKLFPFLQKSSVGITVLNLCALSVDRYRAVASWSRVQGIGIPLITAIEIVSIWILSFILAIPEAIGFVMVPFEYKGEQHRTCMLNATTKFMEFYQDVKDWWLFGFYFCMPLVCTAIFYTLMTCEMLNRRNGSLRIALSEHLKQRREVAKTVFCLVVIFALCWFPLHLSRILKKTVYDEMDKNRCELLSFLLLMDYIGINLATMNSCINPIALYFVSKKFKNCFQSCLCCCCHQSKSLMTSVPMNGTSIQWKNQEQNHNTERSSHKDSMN
- Method Description: Binding affinity for endothelin A receptor by inhibition of [125I]ET1 binding in rat aorta smooth muscle cells
Parameter Measured: pIC50
Give bare numbers, as −log10 of the molar value.

Use these answered entries as a reference point.
Entry COc1cccc(C2=C(C(=O)O)C(c3ccc4c(c3)OCO4)Oc3ccc(OC(C)C)cc32)c1 (centres undefined) — recorded pIC50 = 8.80

Entry COc1ccccc1C1=C(C(=O)O)C(c2ccc3c(c2)OCO3)Oc2ccccc21 (centres undefined) — recorded pIC50 = 5.66

Entry COc1ccc(C2=C(C(=O)O)C(c3ccc4c(c3)OCO4)Oc3ccccc32)cc1 (centres undefined) — recorded pIC50 = 7.07

Others:
Entry COC1=C(C(=O)O)C(c2ccc3c(c2)OCO3)Oc2ccc(OC(C)C)cc21 (centres undefined) — recorded pIC50 = 8.04
